Target: UniProt P31424
Sequence (P31424 21-1203): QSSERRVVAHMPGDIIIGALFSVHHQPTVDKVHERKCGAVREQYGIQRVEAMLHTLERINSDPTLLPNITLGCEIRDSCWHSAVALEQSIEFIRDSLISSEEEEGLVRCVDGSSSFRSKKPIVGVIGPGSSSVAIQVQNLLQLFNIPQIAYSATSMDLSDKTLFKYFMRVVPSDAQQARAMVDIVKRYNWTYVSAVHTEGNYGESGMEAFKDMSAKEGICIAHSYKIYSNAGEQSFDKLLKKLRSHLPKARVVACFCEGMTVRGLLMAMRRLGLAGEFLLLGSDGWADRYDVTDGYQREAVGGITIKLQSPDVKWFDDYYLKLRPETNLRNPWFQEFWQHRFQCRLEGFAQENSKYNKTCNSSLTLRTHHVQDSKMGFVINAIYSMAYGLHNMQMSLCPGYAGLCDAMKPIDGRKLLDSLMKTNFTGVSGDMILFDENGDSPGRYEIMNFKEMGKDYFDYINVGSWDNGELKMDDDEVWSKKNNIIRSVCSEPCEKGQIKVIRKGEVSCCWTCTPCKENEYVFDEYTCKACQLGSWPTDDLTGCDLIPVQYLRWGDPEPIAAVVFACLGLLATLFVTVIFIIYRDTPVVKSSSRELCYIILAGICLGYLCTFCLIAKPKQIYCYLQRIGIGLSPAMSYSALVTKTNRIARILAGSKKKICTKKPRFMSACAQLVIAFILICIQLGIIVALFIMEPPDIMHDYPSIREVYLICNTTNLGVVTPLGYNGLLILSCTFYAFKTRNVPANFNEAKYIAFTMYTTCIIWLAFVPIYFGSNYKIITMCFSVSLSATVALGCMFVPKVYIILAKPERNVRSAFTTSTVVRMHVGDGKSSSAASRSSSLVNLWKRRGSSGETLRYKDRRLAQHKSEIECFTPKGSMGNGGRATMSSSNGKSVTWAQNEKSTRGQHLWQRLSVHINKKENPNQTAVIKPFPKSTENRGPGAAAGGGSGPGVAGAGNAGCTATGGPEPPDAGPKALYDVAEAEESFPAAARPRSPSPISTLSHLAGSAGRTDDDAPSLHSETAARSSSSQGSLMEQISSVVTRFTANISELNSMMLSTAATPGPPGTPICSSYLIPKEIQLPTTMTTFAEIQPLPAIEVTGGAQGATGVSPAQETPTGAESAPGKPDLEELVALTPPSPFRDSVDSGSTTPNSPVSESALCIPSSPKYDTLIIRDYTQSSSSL
Assay: Potentiation of glutamate response, calcium fluorescence (FDSS) in HEK cells transfected with rat mGluR5
Settings: HEK cells transfected with rat mGluR5; EC20 concentration of glutamate; read-out: mGluR5 Potentiator EC50
pEC50: −log10 of the molar value.
// label = Condition met if pEC50 is not less than 7, otherwise Condition not met

# SMILES NOTATION, GROUP LABEL
records = [
    ("Cc1ccccc1C#Cc1ccc2c(c1)CCNC2=O", "Condition not met"),
    ("CN(C)CCNC(=O)CN1CCc2cc(C#Cc3ccccc3)ccc2C1=O", "Condition met"),
    ("CN1CCc2cc(C#Cc3ccccc3)ccc2C1=O", "Condition met"),
    ("COc1cccc(C#Cc2ccc3c(c2)CCNC3=O)c1", "Condition not met"),
    ("O=C1NCCc2cc(C#Cc3ccncc3)ccc21", "Condition not met"),
    ("O=C1c2ccc(C#Cc3ccccc3)cc2CCN1CC1CC1", "Condition met"),
    ("Cc1cccc(C#Cc2ccc3c(c2)CCNC3=O)c1", "Condition not met"),
]
